TARGET_ENTITY: T1, hPD-L1-His (human, UniProt Q9NZQ7 19-238)
T1 construct: Bought protein; also called hPD-L1-His (manufactured by Edison); not shown: His tag
PROTOCOL_DETAILS: SPR (Biacore T200), antibody on Protein A chip, hPD-L1-His injected, 1:1 fit
The binders listed here are annotated with their kon.
Answer format: numeric, M⁻¹ s⁻¹ implied, no suffix.

Worked cases, answers included:
BINDER | kon, M⁻¹ s⁻¹
23-2A6-mHvKv-IgG1-N297A (antibody, V domains shown) VH: QVQLKESGPGLVAPSQSLSITCTVSGFSLTSYDISWIRQPPGKGLEWLGAIWTGGGTNYNSAFMSRLSISKDNSKSQVFLKMNSLQTDDTAIYYCVRDPYYYAMDYWGQGTSVTVSS VL: DIQMNQSPSSLSASLGDTITITCHASQNLNVWLSWYQQKPGNIPKLLIYKASNLHTGVPSRFSGSGSGTGFTLTISSLQPEDIATYYCQQGQSYPRTFGGGTKLEIK | 573000
3F2-H4K2-IgG1 (antibody, V domains shown) VH: DVQLQESGPGLVKPSETLSLTCTVSGYSITSGYNWHWIRQFPGNKLEWMGYIHHSSITNYNPSLKSRITISRDTSKNQFFLQLSSVTAEDTATFYCAREGYDYDWFAYWGQGTLVTVSS VL: DIVLTQSPDFQSVTPKEKVTLSCRASQSISNNLHWYQQKPDESPKLLIKYASQSISGIPSRFSGSGSGTDFTLTINSVEAEDFAMYFCQQSKSWPFTFGQGTRLEIK | 1.3e+06

# evaluate next
Please give measured kon of the following entry: 3F2-H1K1-IgG1 (antibody, V domains shown) VH: QVQLQESGPGLVKPSETLSLTCTVSGYSITSGYNWHWIRQFPGNGLEWMGYIHHSSITNYNPSLKSRITISRDTSKNQFSLKLSSVTAADTATYYCAREGYDYDWFAYWGQGTLVTVSS VL: DIVLTQSPDFQSVTPKEKVTITCRASQSISNNLHWYQQKPDESPKLLIKYASQSISGIPSRFSGSGSGTDFTLTINSVEAEDFAMYFCQQSKSWPFTFGQGTRLEIK 981000

Source listed as patent US20220073621A1.
